# System: M14
# assay overview: NCI tumour cell line growth inhibition, 48 h
The source made the active and inactive calls. Rule as the data show it: active = GI50 up to about 1.1 µM and inactive = higher.
measurement label: GI50

Reference set, count: 2
Query string: // lookup GI50 for c1ccc(C2N=NN(c3ccccc3)C2N2CCCCC2)cc1 (stereo not given)
Result string: > 100 µM (inactive)

Query string: Requested read-out: GI50. Entry: CC1Nc2ccccc2NC1C=C(C#N)C#N (stereo not given)
Result string: 11.9 µM (inactive)

Below are some compounds; for each one, tell me its GI50.
1. N#Cc1[nH]c(=O)n(-c2ccc([N+](=O)[O-])cc2)c1N
2. O=C(CC(=O)N1N=C(n2ccc3ccccc32)CC1c1ccccc1)Nc1ccc(Cl)cc1 (stereo not given)
3. Cc1cc(C)nc(NS(=O)(=O)c2ccc(NC(=O)c3cc([N+](=O)[O-])cc([N+](=O)[O-])c3)cc2)n1
4. CC(C)CC(N)C(=O)OCN1C(=O)C2C3C=CC(C2C1=O)C1C2C(=O)N(COC(=O)C(N)CC(C)C)C(=O)C2C31 (stereo not given)
5. Nc1ccc(-c2nc3ccccc3s2)cc1C#Cc1ccccc1

Result string:
1. > 10 µM (inactive)
2. > 100 µM (inactive)
3. 45.8 µM (inactive)
4. > 100 µM (inactive)
5. 16.3 µM (inactive)
